- System: TAB165
- experiment.summary: qHTS profiling for inhibitors of Plasmodium falciparum proliferation (AID 504749); also: nearly all actives have a fitted effect of over 60% in size
- experimental.context: P. falciparum in erythrocytes, SYBR Green DNA, 72 h; series mostly up to 28.7 µM
Results filed as inconclusive are left out. Activity calls are given as the source filed them. Calls follow the shape of the dose curve; as a rule, active = well fitted inhibition curve with a large enough effect; inconclusive = small, poorly fitted or top-dose-only effect; inactive = flat fitted curve, though single readings scatter.
Outcomes: active, inactive

compound	study.target	answer.label
COc1ccc(-c2noc(CC(=O)O)c2-c2ccc(OC)cc2)cc1	TAB165	inactive
C(=C\c1ccncc1)/c1ccccc1	TAB165	inactive
CN(C)c1ccc(C(=C2C=CC(=[N+](C)C)C=C2)c2c(O)c(S(=O)(=O)[O-])cc3cc(S(=O)(=O)O)ccc23)cc1	TAB165	inactive
CCN(CC)C(=S)S	TAB165	inactive
CCN(CC)CCCC(C)Nc1cc(/C=C/c2ccccc2Cl)nc2cc(Cl)ccc12 (stereo not drawn)	TAB165	active
FC(F)(F)COCC(F)(F)F	TAB165	inactive
CC(=O)[C@H]1CC[C@H]2[C@@H]3C=CC4=CC(=O)CC[C@@]4(C)[C@H]3CC[C@]12C	TAB165	inactive
C=CCN1CCCC1CNC(=O)c1cc(S(N)(=O)=O)cc(OC)c1OC (stereo not drawn)	TAB165	inactive
CCC(=O)c1ccc2c(c1)N(CCCN1CCN(CCO)CC1)c1ccccc1S2	TAB165	active
CC(C)NCC(O)COc1ccccc1-n1cccc1 (stereo not drawn)	TAB165	inactive
C[C@H](N)C(=O)N[C@@H](C)P(=O)(O)O	TAB165	inactive
OC/C=C/c1ccccc1	TAB165	inactive
CCCCCCCCCCCCOCCCN	TAB165	inactive
O=C(O)Cc1cc(I)c(Oc2ccc(O)c(I)c2)c(I)c1	TAB165	inactive
CCOC(=O)[C@@H](N)CS	TAB165	inactive
CCCOc1cc(N)ccc1C(=O)OCCN(CC)CC	TAB165	inactive
NC(N)=O	TAB165	inactive
O=C(/C=C/c1cccc(F)c1)NC1CC1	TAB165	inactive
O=C1c2ccccc2CN2C(=O)c3ccccc3CN12	TAB165	inactive
CC1CCC(NC(=O)N(CCCl)N=O)CC1 (stereo not drawn)	TAB165	inactive
COC(=O)[C@@H](N)CS	TAB165	inactive
CN(CCO)CC(O)Cn1cnc2c1c(=O)n(C)c(=O)n2C (stereo not drawn) (tested in a mixture with another compound)	TAB165	inactive
Nc1ncnc2c1ncn2CCOCP(=O)(O)O	TAB165	inactive
CCN(CC)C(=O)c1cccnc1	TAB165	inactive
O=C(O)[C@H]1CN(C/C=C/P(=O)(O)O)CCN1	TAB165	inactive
CC(C)(CO)[C@@H](O)C(=O)NCCC(=O)NCCSSCCNC(=O)CCNC(=O)[C@H](O)C(C)(C)CO	TAB165	inactive
NC(=S)N=Nc1ccc(NN=C(N)N)cc1	TAB165	active
O=C1CCC(=O)N1CO	TAB165	inactive
